Listed here: items and their measured GI50.
Test system: SF-539 CNS
Experiment: NCI tumour cell line growth inhibition, 48 h

Nc1cc2cccc[n+]2c2cc(Cl)ccc12 | 14.6 µM

Form: compound = O=C1OC(=O)C(c2c[nH]c3ccccc23)=C1c1c[nH]c2ccccc12 ; GI50 = > 25 µM

Form: compound = Nc1ccn(Cc2ccc(C34CC5CC(CC(C5)C3)C4)c(O)c2)c(=O)n1 ; GI50 = 42 µM

Form: compound = CCCCN1CCN(c2ccc3nc(-c4ccc5nc(-c6ccc(C(F)(F)F)cc6)[nH]c5c4)[nH]c3c2)CC1 ; GI50 = 1.59 µM

Form: compound = CCCCCn1c(=N)n(CC(O)COc2cccc(C)c2)c2ccccc21 (configuration not stated) ; GI50 = 11.7 µM

====

Tested on: MCF7 breast
Assay: NCI tumour cell line growth inhibition, 48 h; in the data active = GI50 below about 0.43 µM; inactive = the rest
Assign a class; possible classes are yes (1) for active, no (0) for inactive

Cc1ccc(/C=C2\CN(C(=O)OC(C)(C)C)C/C(=C\c3ccc(C)cc3)C2=O)cc1 | yes (1)
CN1CCN(CCc2cccc(C(=O)c3cnn(-c4ccc(F)cc4)c3N)c2)CC1 | no (0)

Now for a further compound.
Prompt: What did the test return for COC1(C(=O)N[C@@H](C)c2ccc(-n3cc(F)cn3)nc2)CCC(c2nc(C)cc(Nc3cc(C)[nH]n3)n2)CC1 (stereo partly drawn) ?
Response: no (0)

====

Test system: UACC-257 melanoma
Assay: NCI tumour cell line growth inhibition, 48 h
quantity.name: TGI

CCN(CC)CCOC(NC(C)=O)(c1ccccc1)c1ccccc1 | > 100 µM

Form: compound = O=C1/C(=C/c2ccccc2S)N=C(c2ccccc2)N1c1nc2ccc(Sc3ccccc3)cc2[nH]1 ; TGI = 69.2 µM

Form: compound = COc1cc(OCc2ccc3oc(=O)c(-c4ccccc4)nc3c2)cc(OC)c1OC ; TGI = > 100 µM

Form: compound = COc1ccc(N2C(=O)c3c4c(c5c([nH]c6ncccc65)c3C2=O)CCC(C(C)(C)C)C4)cc1 (stereo not given) ; TGI = > 100 µM

Form: compound = CC(C)(C)OC(=O)C#CC[C@H]1CCCC1/C=C/C(O)=C1/C(=O)NC(CCCNC(=O)OC(C)(C)C)C1=O (stereo not given in full) ; TGI = 61.4 µM

Form: compound = CCCCN1CCN(c2ccc3nc(-c4ccc5nc(-c6ccc(C(F)(F)F)cc6)[nH]c5c4)[nH]c3c2)CC1 ; TGI = 3.41 µM

Form: compound = COc1ccc2nc3cc([N+](=O)[O-])ccc3c(NCCCCCN(C)C)c2c1 ; TGI = 2.66 µM

Form: compound = CCCCCCCCCCCCOC(=S)NCCCC ; TGI = 44 µM

Form: compound = COc1c2c(c3c(c1CCC(=O)O)OC(C)(C)C=C3)OC(C)(C)C=C2 ; TGI = > 100 µM

Form: compound = Cc1cn2c(/C=C3/C(=O)Nc4cccc(Cl)c43)c(Cl)nc2s1 ; TGI = > 100 µM

====

Tested on: NCI-H460 lung
Assign a class; possible classes are 1 for active, 0 for inactive

Here are 3 compounds together with their reported answers.
CN(C)S(=O)(=O)c1ccc(NC(=O)COC(=O)c2ccc(S(=O)(=O)N3CCCCC3)cc2)cc1 | 0
COC(=O)[C@]12CC[C@@H](C)[C@H](C)[C@@H]1C1=CC[C@@H]3[C@@]4(C)C[C@@H](OC(C)=O)[C@H](O)[C@@](C)(COC(C)=O)[C@@H]4[C@H](O)C[C@@]3(C)[C@]1(C)CC2 | 0
Cc1c(C(=O)/C=C/c2csc3ccccc23)[n+](=O)c2ccccc2n1[O-] | 0

Prompt: What did the test return for C=C1C(O)C2(O)OCC34C(CC5C(C)=CC(=O)C(O)C5(C)C23)OC(=O)C(OC(=O)C/C=C(\C)CCCCC)C14 (stereo not given) ?
Response: 1

Prompt: What did the test return for CCN(Cc1ccc(F)c(F)c1)c1ccc(CO)c(Cl)c1 ?
Response: 1

Prompt: What did the test return for Cc1sc(C(=O)Nc2cc(C(=O)NCCCN(C)C)n(C)c2)cc1NC(=O)CCCN1C(=O)c2cccc3cccc(c23)C1=O ?
Response: 0

Prompt: What did the test return for Cc1ccncc1.[O]=[Ge].[O]=[Ge].[O]=[Ge].[O]=[Ge].[O]=[Ge].[O]=[Ge][OH].[O]=[Ge][OH] ?
Response: 0

Prompt: What did the test return for O=C1OC(=O)C(c2c[nH]c3ccccc23)=C1c1c[nH]c2ccccc12 ?
Response: 0

Prompt: What did the test return for Oc1ccc(-c2nnc3sc(-c4ccc(F)cc4)nn23)cc1 ?
Response: 0
